The reported measurements were obtained from ChEMBL document CHEMBL2390830.

procedure-details: Binding affinity to GABA-gated chloride channel (unknown origin) by radioligand displacement assay
Design: species or system Homo sapiens
measured-attribute: pIC50
Just so you know, pIC50 here is -log10 of the concentration in molar units; reply with that number alone.

Lookup result for C=C(C)[C@@H]1[C@H]2OC(=O)[C@@H]1[C@]1(O)C[C@H]3O[C@]34C(=O)O[C@H]2[C@]14C ; measured pIC50: 6.92

---

assayed-target: 5-hydroxytryptamine receptor 7 (Homo sapiens, UniProt P34969)
Sequence (P34969 whole entry): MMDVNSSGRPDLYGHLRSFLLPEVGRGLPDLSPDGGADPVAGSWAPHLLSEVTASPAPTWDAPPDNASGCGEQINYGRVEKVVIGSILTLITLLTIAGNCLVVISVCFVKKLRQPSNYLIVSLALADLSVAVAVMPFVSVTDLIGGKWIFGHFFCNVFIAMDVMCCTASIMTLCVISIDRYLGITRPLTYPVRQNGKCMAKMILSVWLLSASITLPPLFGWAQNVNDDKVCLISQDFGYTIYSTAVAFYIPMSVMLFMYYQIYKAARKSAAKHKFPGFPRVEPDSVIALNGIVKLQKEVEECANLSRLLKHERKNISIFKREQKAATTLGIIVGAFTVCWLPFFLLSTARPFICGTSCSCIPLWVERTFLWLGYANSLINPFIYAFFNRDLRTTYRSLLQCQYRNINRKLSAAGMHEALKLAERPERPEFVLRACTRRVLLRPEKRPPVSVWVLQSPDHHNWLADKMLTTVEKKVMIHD
measured-attribute: pIC50
# reply with the number alone; pIC50 is -log10 of concentration in mol/L

# pIC50 measured on 5-hydroxytryptamine receptor 7 (Homo sapiens, UniProt P34969) for item COc1ccccc1N1CCN(CCCCCN2Cc3ccc4ccccc4c3C2=O)CC1 = 7.21
